Molecular target: T1, HMG1 purified from calf (bovine) thymus (bovine, UniProt P10103 2-215)
T1 construct: also called Calf thymus HMGB1; thymus HMG1
T1 sequence (looked up): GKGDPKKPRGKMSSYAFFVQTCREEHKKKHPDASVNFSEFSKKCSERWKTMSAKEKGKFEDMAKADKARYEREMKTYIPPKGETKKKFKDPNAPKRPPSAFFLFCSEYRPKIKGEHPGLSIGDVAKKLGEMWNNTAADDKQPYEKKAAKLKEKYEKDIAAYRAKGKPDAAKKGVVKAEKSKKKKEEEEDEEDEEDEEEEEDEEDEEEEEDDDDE
Assay: direct ELISA, calf thymus HMGB1 coated at 5 ug/mL, antibody at 10 ug/mL, anti-human kappa/lambda-HRP, OD 490
Experimental: Binding to HMG1 vs. HMG2: Ultra high-binding ELISA plates (ThermoLab systems, #3855) were coated with either 5 ug/mL of Calf thymus HMGB1 or HMBG2 diluted in 10 mM Phosphate buffered saline (PBS), pH 7.2 and incubate overnight at 4 degrees. […] The reaction was stopped with the addition of 100 μl of 2M H₂SO₄, and the plates read on a plate reader at a wavelength of 490 nm.
experimental_endpoint: binding result

- binder: "human anti-HMG1 antibody S10 (antibody, IgG1, V domains shown, full length IgG1 made from a human Fab phage clone) VH: EVQLLESGGGLVQPGGSLRLSCAASGFTFSWYDMWWVRQAPGKGLEWVSWIVPSGGITAYADSVKGRFTISRDNSKNTLYLQMNSLRAEDTATYYCARGNYGPSPFDYWGQGTLVTVSS VL: DIQMTQSPGTLSLSPGERATLSCRATQSVRKNFLAWYQQKPGQAPRLLIYDASSRATGIPDRFSGSGSGTDFTLTISRLEPEDFAVYYCQQYGNSPIIFGQGTRLEIK"
  val: "binds"
- binder: "human anti-HMG1 antibody S16 (antibody, IgG1, V domains shown, full length IgG1 made from a human Fab phage clone; also called ATCC PTA-6259) VH: EVQLLESGGGLVQPGGSLRLSCAASGFTFSWYSMLWVRQAPGKGLEWVSYISPSGGFTNYADSVKGRFTISRDNSKNTLYLQMNSLRAEDTAVYYCARWDYNSGWYYDHWGQGTLVTVSS VL: DIQMTQSPDTLSLSPGERATLSCRASQSVNSRNLAWYQQKPGQAPRLLIYGASTRATGIPDRFSGSVSGTEFTLTISSLQPDDFATYYCQQYNSYFTFGQGTKLEIK"
  val: "binds"
- binder: "human anti-HMG1 antibody G12 (antibody, IgG1, V domains shown, full length IgG1 made from a human Fab phage clone) VH: EVQLLESGGGLVQPGGSLRLSCAASGFTFSYYMMTWVRQAPGKGLEWVSSISPSGGYTIYADSAKGRFTISRDNSKNTLYLQMNSLRAEDTAVYYCARALSTGSFWDYWGQGTLVTVSS VL: DIQMTQSPGTLSLSPGERATLSCRASESLTSTYVAWYQHKPGQAPRLLIHGGSTRATGIPVRFSGSGSGTDFTLTIATLEPEDFAVYYCQQYGSSPYTFGQGTKLEIK"
  val: "binds"
